Assayed target: HIV-1 protease (Human immunodeficiency virus type 1 group M subtype B, UniProt P04585)
Construct: The protease (or proteinase), consisting of only 99 amino acids, is among the smallest enzymes known
Test name: In vitro HIV protease inhibitory assay (HIV Protease FITC Assay)
Format: biochemical
Study conditions: HIV-1 Dose 0.123 uM; read-out: HIV-1 Protease % Inhib
Quantity: inhibition at 0.123 µM

inhibition at 0.123 µM measured on CCC(CC1COc2ccccc2O1)c1cc(O)c(C(c2ccccc2)C2CC2)c(=O)o1 (centres unmarked) = < 10%

Quick note, inhibition at 0.123 µM for O=c1oc(CC(O)c2ccoc2)cc(O)c1C(c1ccccc1)C1CC1 (centres unmarked) landed at < 10%

Field inhibition at 0.123 µM (entry CCC(Cc1cccc(Br)c1)c1cc(O)c(C(c2ccccc2)C2CC2)c(=O)o1 (centres unmarked) ) reads < 10%

Lab note: measured inhibition at 0.123 µM of CCC(Cc1ccccc1)c1cc(O)c(C(c2cccc(NS(=O)(=O)CC)c2)C2CC2)c(=O)o1 (centres unmarked) was 14.1%

Lab book: inhibition at 0.123 µM of `O=C1OC(CCc2ccccc2)(CCc2ccccc2)CC(O)=C1C(c1ccccc1)c1ccccc1` noted as < 10%

Item: O=c1oc(CCc2ccc(Cl)cc2)cc(O)c1C(c1ccccc1)C1CC1 (centres unmarked) | inhibition at 0.123 µM: < 10%

For this compound ( CCC(Cc1ccc(Cl)cc1)c1cc(O)c(C(c2ccccc2)C2CC2)c(=O)o1 (centres unmarked) ), measured inhibition at 0.123 µM is 27.6%

Recorded inhibition at 0.123 µM (compound C=CC(C1=C(O)CC2(CCOCC2)OC1=O)c1ccccc1 (centres unmarked) ): < 10%

###

Assayed target: HIV-1 protease (Human immunodeficiency virus type 1 group M subtype B)
Construct: The protease (or proteinase), consisting of only 99 amino acids, is among the smallest enzymes known
Test name: In vitro HIV protease inhibitory assay (HIV Protease FITC Assay)
Assay type: biochemical
Study conditions: HIV-1 Dose 100.000 uM; read-out: HIV-1 Protease % Inhib
Quantity: inhibition at 100 µM (%)
Report only the number, with the unit % understood.

Please fill in: inhibition at 100 µM reported for Cc1noc(C)c1CCc1cc(O)c(C(c2ccccc2)C2CC2)c(=O)o1 (stereo not shown) = 97.3

// inhibition at 100 µM value for CCC(CC1CCOC1)c1cc(O)c(C(c2ccccc2)C2CC2)c(=O)o1 (stereo not shown) : 116

The compound listed as CCCC1(c2ccccc2)CC(=O)C(C(CC)c2cccc(O)c2)C(=O)O1 (stereo not shown) shows inhibition at 100 µM equal to 73.6

Data point: O=c1oc(C(Cc2ccccc2)CC2CC2)cc(O)c1C(c1ccccc1)C1CC1 (stereo not shown) ; inhibition at 100 µM = 95.1

###

Assayed target: HIV-1 protease (Human immunodeficiency virus type 1 group M subtype B)
Construct: The protease (or proteinase), consisting of only 99 amino acids, is among the smallest enzymes known
Test name: In vitro HIV protease inhibitory assay (HIV Protease FITC Assay)
Assay type: biochemical
Study conditions: HIV-1 Dose 0.123 uM; read-out: HIV-1 Protease % Inhib
So I've got a bunch of compounds here, and I need their inhibition at 0.123 µM values.

In plain terms, CCCC1(CCCc2ccccc2)CC(O)=C(C(c2ccccc2)c2ccccc2)C(=O)O1 (stereo not drawn) [Example 242] has a documented inhibition at 0.123 µM of < 10%

Reported inhibition at 0.123 µM of CCC(Cc1ccccc1)c1cc(O)c(C(c2cccc(NC(=O)NCc3ccccc3)c2)C2CC2)c(=O)o1 (stereo not drawn) [Example 213] : < 10%

Reported inhibition at 0.123 µM ( CC(C)C(Cc1ccccc1)c1cc(O)c(C(c2ccccc2)C2CC2)c(=O)o1 (stereo not drawn) [Example 133] ) = 20.6%

Documented inhibition at 0.123 µM of O=c1oc(CC2CCOCC2)cc(O)c1C(c1ccccc1)C1CC1 (stereo not drawn) [Example 144] : < 10%

Looking up O=c1oc(CCc2nnnn2C2CCCCC2)cc(O)c1C(c1ccccc1)C1CC1 (stereo not drawn) [Example 119] , I see its inhibition at 0.123 µM listed as < 10%

The compound listed as O=c1oc(CCC(F)(F)F)cc(O)c1C(c1ccccc1)C1CC1 (stereo not drawn) [Example 139] has a reported inhibition at 0.123 µM of < 10%

Just so you know, measured inhibition at 0.123 µM for CCC(Cc1cccc(C(F)(F)F)c1)c1cc(O)c(C(c2ccccc2)C2CC2)c(=O)o1 (stereo not drawn) [Example 161] came out at < 10%

Recorded inhibition at 0.123 µM (compound CCCS(=O)(=O)Nc1cccc(C(c2c(O)cc(C(CC)Cc3ccccc3)oc2=O)C2CC2)c1 (stereo not drawn) [Example 179] ): 23.7%

The reported value for O=C1OC(Cc2ccccc2)(c2ccccc2)CC(O)=C1C(/C=C/c1ccccc1)c1ccccc1 (stereo not drawn) [Example 172] in terms of inhibition at 0.123 µM is < 10%

inhibition at 0.123 µM reported for this compound CCCCC1(Cc2ccccc2)CC(O)=C(C(CCc2ccccc2)c2ccccc2)C(=O)O1 (stereo not drawn) [Example 218] : < 10%

Reported inhibition at 0.123 µM of CCC(CCc1ccsc1)c1cc(O)c(C(c2ccccc2)C2CC2)c(=O)o1 (stereo not drawn) [Example 71] : 11.6%

GET /value?item= CCCC1(CCCc2ccccc2)CC(O)=C(C(c2ccc(COCOC)s2)C2CC2)C(=O)O1 (stereo not drawn) [Example 241] &field=inhibition at 0.123 µM returns < 10%

For reference, reported inhibition at 0.123 µM for CCC(Cc1ccc(OC)cc1)c1cc(O)c(C(c2ccccc2)C2CC2)c(=O)o1 (stereo not drawn) [Example 163] stands at < 10%

O=C1OC(CCc2ccccc2)(CCc2ccccc2)CC(O)=C1C(C=Cc1ccccc1)c1ccccc1 (stereo not drawn) [Example 236] has a reported inhibition at 0.123 µM of < 10%

Reported inhibition at 0.123 µM of CCCC1(Cc2ccccc2)CC(O)=C(C(C=Cc2ccccc2)c2ccccc2)C(=O)O1 (stereo not drawn) [Example 176] : < 10%

Lab note: CCC(CC(=O)OCc1ccccc1)c1cc(O)c(C(c2ccccc2)C2CC2)c(=O)o1 (stereo not drawn) [Example 132] gave inhibition at 0.123 µM of < 10%

Summary for this compound, CCC(Cc1ccccc1)c1cc(O)c(C(c2cccc(NS(=O)(=O)/C=C/c3ccccc3)c2)C2CC2)c(=O)o1 (stereo not drawn) [Example 180] : inhibition at 0.123 µM is 32%

Documented inhibition at 0.123 µM of O=C(CCn1ccc2ccccc21)Nc1cccc(C(c2c(O)cc(C(CC3CC3)CC3CC3)oc2=O)C2CC2)c1 (stereo not drawn) [Example 39] : < 10%

inhibition at 0.123 µM reported for this compound C=CC(C1=C(O)CC(CCCC)(Cc2ccccc2)OC1=O)c1ccccc1 (stereo not drawn) [Example 219] : < 10%

Entry O=c1oc(C(CC2CC2)CC2CCCOC2)cc(O)c1C(c1ccccc1)C1CC1 (stereo not drawn) [Example 243] — recorded inhibition at 0.123 µM = < 10%

Field inhibition at 0.123 µM (entry CCC(C1=C(O)CC(CCc2ccccc2)(CC(C)C)OC1=O)c1ccccc1 (stereo not drawn) [Example 234] ) reads < 10%

// CCCCC1(Cc2ccccc2)CC(O)=C(C(C=Cc2ccccc2)c2ccccc2)C(=O)O1 (stereo not drawn) [Example 217] : inhibition at 0.123 µM value = < 10%

Data point: CCC(Cc1ccc(C(F)(F)F)cc1)c1cc(O)c(C(c2ccccc2)C2CC2)c(=O)o1 (stereo not drawn) [Example 160] ; inhibition at 0.123 µM = < 10%

Reported inhibition at 0.123 µM for CCCC1(CCCc2ccccc2)CC(O)=C(C(CCc2ccccc2)c2ccccc2)C(=O)O1 (stereo not drawn) [Example 239] was < 10%

Recorded result, CCC(Cc1ccccc1)c1cc(O)c(C(c2cccc(NS(=O)(=O)c3ccccc3)c2)C2CC2)c(=O)o1 (stereo not drawn) [Example 178] , inhibition at 0.123 µM: 21.6%

The reported inhibition at 0.123 µM of the compound CCC(CC1CCCN1S(=O)(=O)c1ccc(C)cc1)c1cc(O)c(C(c2ccccc2)C2CC2)c(=O)o1 (stereo not drawn) [Example 138] was < 10%

Entry CCC(Cc1ccccc1)c1cc(O)c(C(c2cccc(NC(=O)CCn3ccc4ccccc43)c2)C2CC2)c(=O)o1 (stereo not drawn) [Example 230] , inhibition at 0.123 µM reported as < 10%

Per the records, this compound ( CC(C)CC1(CCc2ccccc2)CC(O)=C(C(c2ccccc2)c2ccccc2)C(=O)O1 (stereo not drawn) [Example 209] ) has inhibition at 0.123 µM equal to < 10%

For C=CC(C1=C(O)CC2(CCCC2)OC1=O)c1ccccc1 (stereo not drawn) [Example 128] the compound record lists inhibition at 0.123 µM as < 10%

GET /value?item= CCC(Cc1ccccc1)c1cc(O)c(C2(c3ccccc3)CCC2)c(=O)o1 (stereo not drawn) [Example 124] &field=inhibition at 0.123 µM returns < 10%

// field: inhibition at 0.123 µM; key: CCC(CCC(F)(F)F)c1cc(O)c(C(c2ccccc2)C2CC2)c(=O)o1 (stereo not drawn) [Example 136] ; value = < 10%

The compound identified as CCC(CCCCl)c1cc(O)c(C(c2ccccc2)C2CC2)c(=O)o1 (stereo not drawn) [Example 64] registered its inhibition at 0.123 µM at 13.7%

Summary for this compound, CCC(Cc1ccccc1)c1cc(O)c(C(c2cccc(NC(=O)NS(=O)(=O)c3ccccc3)c2)C2CC2)c(=O)o1 (stereo not drawn) [Example 216] : inhibition at 0.123 µM is < 10%
